This section presents compounds with their documented GI50 values.
System: DMS-273
Experiment: NCI tumour cell line growth inhibition, 48 h
Activity calls are given as the source filed them. Cut-off read from the data, not from the text of the source: active = GI50 up to about 1.1 µM and inactive = higher. Peptide text beside a SMILES is read from it.
RESULT_TYPE: GI50

[
  {
    "COMPOUND": "CO[C@H]1ON=C(c2c(C)cc(C)cc2C)[C@@H]1C1(c2ccccc2)ON=C(c2c(C)cc(C)cc2C)O1 (stereo not given in full)",
    "EXPERIMENTAL_TARGET": "DMS-273",
    "RESULT": "> 100 µM (inactive)"
  },
  {
    "COMPOUND": "O=S1(=O)[C@H](c2ccccc2)c2c(-c3ccccc3)sc(-c3ccccc3)c2[C@@H]1c1ccccc1",
    "EXPERIMENTAL_TARGET": "DMS-273",
    "RESULT": "> 100 µM (inactive)"
  },
  {
    "COMPOUND": "CC(C)CC(NC(=O)C(CC(C)C)NC(=O)C(Cc1c[nH]cn1)NC(=O)C(C)NC(=O)C(NC(=O)C(C)NC(=O)C(Cc1c[nH]c2ccccc12)NC(=O)C(CCC(=O)O)NC(=O)C(N)Cc1ccccc1)C(C)C)C(N)=O (stereo not given) (H-FEWAVAHLL-NH2; configuration not given here)",
    "EXPERIMENTAL_TARGET": "DMS-273",
    "RESULT": "> 100 µM (inactive)"
  },
  {
    "COMPOUND": "COc1cc(Oc2c(O)c(C)c(OC)c(C(C)=O)c2O)c(C(C)=O)c(O)c1C",
    "EXPERIMENTAL_TARGET": "DMS-273",
    "RESULT": "37.8 µM (inactive)"
  },
  {
    "COMPOUND": "CC(=O)n1ccc2c(Cl)ncnc21",
    "EXPERIMENTAL_TARGET": "DMS-273",
    "RESULT": "> 100 µM (inactive)"
  },
  {
    "COMPOUND": "CC1CC2CC(=O)CC3(C1)C2CCCN3CCCO (stereo not given)",
    "EXPERIMENTAL_TARGET": "DMS-273",
    "RESULT": "> 100 µM (inactive)"
  },
  {
    "COMPOUND": "O=C1OC(c2ccccc2)(c2ccccc2)CC1CN1CCOCC1 (stereo not given)",
    "EXPERIMENTAL_TARGET": "DMS-273",
    "RESULT": "38.2 µM (inactive)"
  },
  {
    "COMPOUND": "Nc1ccc([C@H]2C(=O)N[C@H]3CCC[C@H]32)cc1",
    "EXPERIMENTAL_TARGET": "DMS-273",
    "RESULT": "> 100 µM (inactive)"
  },
  {
    "COMPOUND": "CCOC(=O)C(=O)Nc1c(C)cccc1C(C)(C)C",
    "EXPERIMENTAL_TARGET": "DMS-273",
    "RESULT": "> 100 µM (inactive)"
  },
  {
    "COMPOUND": "O=C(CC/C(CC(=O)c1ccc(Cl)cc1)=N/O)Nc1ccc(Cl)c(Cl)c1",
    "EXPERIMENTAL_TARGET": "DMS-273",
    "RESULT": "> 100 µM (inactive)"
  },
  {
    "COMPOUND": "CC(C)(C)c1cc(C#N)c2c(c1)C(=O)OC2(c1ccccc1)c1ccccc1C#N (stereo not given)",
    "EXPERIMENTAL_TARGET": "DMS-273",
    "RESULT": "> 100 µM (inactive)"
  },
  {
    "COMPOUND": "O=C(c1ccc(Cl)cc1)c1ccc(OCCSCCCCCCCCCCSCCOc2ccc(C(=O)c3ccc(Cl)cc3)cc2)cc1",
    "EXPERIMENTAL_TARGET": "DMS-273",
    "RESULT": "> 100 µM (inactive)"
  },
  {
    "COMPOUND": "[O-][S+]1[C@H](c2ccccc2)c2c(-c3ccccc3)sc(-c3ccccc3)c2[C@@H]1c1ccccc1 (stereo not given in full)",
    "EXPERIMENTAL_TARGET": "DMS-273",
    "RESULT": "> 100 µM (inactive)"
  },
  {
    "COMPOUND": "COc1ccc(/C(Cl)=C(\\C=N/O)c2ccc(OC)c(OC)c2)cc1OC",
    "EXPERIMENTAL_TARGET": "DMS-273",
    "RESULT": "> 100 µM (inactive)"
  },
  {
    "COMPOUND": "Nc1ccc2ncc(Nc3ccc(F)cc3)nc2c1",
    "EXPERIMENTAL_TARGET": "DMS-273",
    "RESULT": "> 100 µM (inactive)"
  },
  {
    "COMPOUND": "CCOC(=O)c1ccc(N[C@@H]2c3cc4c(cc3C(C3=CC(=O)C(=O)C(OC)=C3)[C@H]3C(=O)OCC32)OCO4)cc1 (stereo not given in full)",
    "EXPERIMENTAL_TARGET": "DMS-273",
    "RESULT": "1.12 µM (inactive)"
  },
  {
    "COMPOUND": "N#CCCN(CCC#N)c1ccc(/C=C(/NC(=O)c2cc([N+](=O)[O-])ccc2Cl)C(=O)NN)cc1",
    "EXPERIMENTAL_TARGET": "DMS-273",
    "RESULT": "> 100 µM (inactive)"
  },
  {
    "COMPOUND": "O=C(O)CCN(CCCCN(CCC(=O)O)CCC(=O)O)CCC(=O)O",
    "EXPERIMENTAL_TARGET": "DMS-273",
    "RESULT": "> 100 µM (inactive)"
  },
  {
    "COMPOUND": "CC(=O)Oc1cc(OC(C)=O)c2c(c1)OC(c1ccc(OC(C)=O)c(OC(C)=O)c1)CC2=O (stereo not given)",
    "EXPERIMENTAL_TARGET": "DMS-273",
    "RESULT": "50.6 µM (inactive)"
  },
  {
    "COMPOUND": "Cc1ccc(S(=O)(=O)N2CCC2c2ccccc2)cc1 (stereo not given)",
    "EXPERIMENTAL_TARGET": "DMS-273",
    "RESULT": "91 µM (inactive)"
  },
  {
    "COMPOUND": "CN(C)CCNC(=O)C1COc2cc(-c3cc(=O)c4ccccc4o3)ccc2O1 (stereo not given)",
    "EXPERIMENTAL_TARGET": "DMS-273",
    "RESULT": "18.5 µM (inactive)"
  },
  {
    "COMPOUND": "C=C1C(=O)OC2CCCCC3OC3C12 (stereo not given)",
    "EXPERIMENTAL_TARGET": "DMS-273",
    "RESULT": "10.3 µM (inactive)"
  },
  {
    "COMPOUND": "CC(=O)OCC1OC(n2c(=S)n(-c3ccccc3)c(=O)c3cc(Br)ccc32)C(OC(C)=O)C1OC(C)=O (stereo not given)",
    "EXPERIMENTAL_TARGET": "DMS-273",
    "RESULT": "> 100 µM (inactive)"
  },
  {
    "COMPOUND": "N#CCc1ccccc1/C(C#N)=C1/OC(=N)C(c2ccccc2CC#N)C1=O (stereo not given)",
    "EXPERIMENTAL_TARGET": "DMS-273",
    "RESULT": "> 100 µM (inactive)"
  },
  {
    "COMPOUND": "Cn1c(C2CC(C)(C)c3c2c2ccccc2n3C)cc2ccccc21 (stereo not given)",
    "EXPERIMENTAL_TARGET": "DMS-273",
    "RESULT": "> 304 µM (inactive)"
  },
  {
    "COMPOUND": "CNC(=O)OCc1cc2ccncc2c2c1[nH]c1ccccc12",
    "EXPERIMENTAL_TARGET": "DMS-273",
    "RESULT": "> 100 µM (inactive)"
  },
  {
    "COMPOUND": "O=Cc1c(O)c(C(=O)Nc2ccc3[nH]c(=O)[nH]c3c2)cc2ccccc12",
    "EXPERIMENTAL_TARGET": "DMS-273",
    "RESULT": "> 100 µM (inactive)"
  },
  {
    "COMPOUND": "O=C1C2=C(c3ccccc31)C(c1ccccc1Cl)N1C(=O)CSC1=N2 (stereo not given)",
    "EXPERIMENTAL_TARGET": "DMS-273",
    "RESULT": "> 100 µM (inactive)"
  },
  {
    "COMPOUND": "COc1ccc(C2=NC(C)(C)CO2)cc1",
    "EXPERIMENTAL_TARGET": "DMS-273",
    "RESULT": "> 100 µM (inactive)"
  },
  {
    "COMPOUND": "O=C1C=C(N2CCCC2)C=C(N2CCCC2)C1",
    "EXPERIMENTAL_TARGET": "DMS-273",
    "RESULT": "> 100 µM (inactive)"
  }
]

Where do these numbers come from? They come from ChEMBL document CHEMBL1201862.
